System: UACC-62 melanoma
Experiment description: NCI tumour cell line growth inhibition, 48 h
The entries below come with measured TGI values attached.

Some entries whose results are on file:
{"Molecule": "COc1ccc(/C=N/C2=C(C#N)C(c3ccccc3)c3ccc4ccccc4c3O2)cc1 (stereo not drawn)", "Endpoint value": "> 100 µM"}
{"Molecule": "COc1ccc2c(C(=O)NCCCCCC(=O)O)cc3cc4c(cc3c2c1)OCO4", "Endpoint value": "> 100 µM"}

// query Given NC(=O)NC(=O)c1cccc(C(=O)NC(N)=O)n1 , state its recorded TGI.
// result > 100 µM

###

Tested on: SF-539 CNS
Experiment description: NCI tumour cell line growth inhibition, 48 h
Quantity: TGI

Some entries whose results are on file:
{"Molecule": "Cn1c(=O)ccc2cc(C(=O)c3ccccc3)ccc21", "Endpoint value": "> 100 µM"}
{"Molecule": "O=C1N(c2ccccc2)N=C2c3ccncc3C3=NN(c4ccccc4)C(=O)C123 (stereo not given)", "Endpoint value": "> 46.8 µM"}
{"Molecule": "CC(C)[Si](CC1=CCCCC12C(=O)N(COCC[Si](C)(C)C)c1ccccc12)(C(C)C)C(C)C (stereo not given)", "Endpoint value": "> 100 µM"}

// query Given O=c1oc2ccc([N+](=O)[O-])cc2cc1-c1csc(-c2ccccc2)n1 , state its recorded TGI.
// result > 100 µM

// query Now consider O=C(c1ccccc1)C(c1ccccc1)C1(O)C(=O)Nc2ccc(Br)cc21 (stereo not given) and answer again.
// result > 100 µM
